- SYSTEM TESTED: ZIKV NS5 MTase domain WT (Zika virus, UniProt A0A142I5B9 2521-2785)
- ASSAY TEXT: fluorescence anisotropy; buffer B2; B1: 50 mM Tris-HCl pH 8.0, 150 mM NaCl, 1 mM MgCl2, 2 mM beta-mercaptoethanol, 10% glycerol, 20 C; B2: same with 100 mM NaCl, 20 C
- CONDITION SET: protein: recombinant; tags: N-terminal His6; label: etheno-A fluorescence; single strand
ASSAY READOUT: Kd (nM)
Give bare numbers, in nM.

Q: What value of measured Kd is listed for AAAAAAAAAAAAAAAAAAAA (ssRNA, all A etheno-modified (1,N6-ethenoadenosine)) [epsilonA(p-epsilonA)19 20-mer ssRNA] ?
Result: 910
